Every entry's value here was drawn from patent US5541178A.

Where a name gives a salt, the structure may show the parent alone.
Quick record of MIC values for B. fragilis AMP-S.
Reply with just the number (in µg/mL).

These recorded examples may help you get a feel for the data.
>  <compound>
C[C@@H](O)[C@H]1C(=O)N2C(C(=O)O)=C(S[C@@H]3CN[C@H](C(=O)Nc4ccc(C(=O)O)cc4C(=O)O)C3)[C@H](C)[C@H]12

>  <parameter measured>
MIC

>  <observed result>
0.13

$$$$
>  <compound>
C[C@@H](O)[C@H]1C(=O)N2C(C(=O)O)=C(S[C@@H]3CN[C@H](C(=O)Nc4ccc(C(=O)O)cc4O)C3)[C@H](C)[C@H]12

>  <parameter measured>
MIC

>  <observed result>
0.25

$$$$
>  <compound>
C[C@@H](O)[C@H]1C(=O)N2C(C(=O)O)=C(S[C@@H]3CN[C@H](C(=O)Nc4cc(C(=O)O)ccc4O)C3)[C@H](C)[C@H]12

>  <parameter measured>
MIC

>  <observed result>
0.25

$$$$

Could you now look at the following compound, please?
## Task I am curious: what MIC value has been reported for COc1ccc(NC(=O)[C@@H]2C[C@H](SC3=C(C(=O)O)N4C(=O)[C@H]([C@@H](C)O)[C@H]4[C@H]3C)CN2)c(C(=O)O)c1 [Example 31, dipotassium salt] ?
## Result 0.25
